Target: human factor Xa (Homo sapiens, UniProt P00742)
Construct: purchased Enzyme Research Laboratories
Sequence (P00742 235-488 limits assumed): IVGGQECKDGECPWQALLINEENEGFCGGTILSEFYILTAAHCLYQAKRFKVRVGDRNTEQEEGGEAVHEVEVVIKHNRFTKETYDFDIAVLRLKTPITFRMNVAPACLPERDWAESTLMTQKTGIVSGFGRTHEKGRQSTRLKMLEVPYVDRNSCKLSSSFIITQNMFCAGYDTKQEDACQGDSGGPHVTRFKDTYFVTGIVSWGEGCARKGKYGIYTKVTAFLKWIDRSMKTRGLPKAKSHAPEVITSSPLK
Sequence (P00742 41-179 partner limits assumed): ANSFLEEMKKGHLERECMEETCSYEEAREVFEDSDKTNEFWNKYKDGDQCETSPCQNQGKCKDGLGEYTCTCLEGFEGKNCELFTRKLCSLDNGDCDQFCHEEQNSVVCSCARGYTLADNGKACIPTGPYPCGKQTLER
Assay: Determination of Factor Xa IC50 (cleavage of fluorogenic substrate F-S2765)
Assay type: biochemical
Details: 30 pM human factor Xa; read-out: FxXa 30 pM IC50
measured-property: IC50 (nM)
Only the number, expressed in nM, is required.

Observe how each entry below is paired with its result.
CS(=O)(=O)c1ccccc1-c1ccc(NC(=O)[C@]2(NC(=O)Nc3ccc(Cl)cc3)C[C@@H]2CO)c(F)c1 [Example 18] | 21
CS(=O)(=O)c1ccccc1-c1ccc(NC(=O)C2(NC(=O)Nc3ccc(Cl)cc3)CCN(C(=O)OCc3ccccc3)C2)c(F)c1 (centres unmarked) [Example 22] | 175
NS(=O)(=O)c1ccccc1-c1ccc(NC(=O)C2(NC(=O)Nc3ccc(Cl)cn3)CC2)c(F)c1 [Example 6] | 192
O=C(Nc1ccc(Cl)cc1)N[C@@]1(C(=O)Nc2ccc(N3CCCCC3=O)cc2F)C[C@@H]1CO [Example 19] | 129

Then this compound:
*Q* Which measured IC50 value corresponds to CC(C)CN(CC(=O)Nc1ccc(-c2ccccc2S(C)(=O)=O)cc1F)C(=O)Nc1ccc(Cl)cc1 [Example 25] ?
*A* 105
